# Tested on: HAdV5-GFP
# methodSummary: Plaque assay (inhibition of HAdV plaque formation)
# Format: cell-based, HAdV-5
# conditionContext: read-out: Plaque Assay (%) Inhibition (10 μM)
measuredMetric: inhibition at 10 µM (%)
Number in %, nothing else.

Challenge: Tell me the measured inhibition at 10 µM of `O=C(N[C@H](Cc1ccccc1)C(=O)Nc1ccc([N+](=O)[O-])cc1Cl)c1cc(Cl)ccc1O` , please.
Response given: 100

Challenge: Tell me the measured inhibition at 10 µM of `O=C(Nc1ccc(C(F)(F)F)cc1Cl)c1cc(Cl)ccc1O` , please.
Response given: 100

Challenge: Tell me the measured inhibition at 10 µM of `O=C(NCCc1ccc(F)cc1)c1cc(Cl)ccc1O` , please.
Response given: 98.7

Challenge: Tell me the measured inhibition at 10 µM of `O=C(Nc1cc(NC2CCCC2)ccc1F)c1cc(Cl)ccc1O` , please.
Response given: 99.8

Challenge: Tell me the measured inhibition at 10 µM of `O=C(Nc1ccc(NCc2cc(Cl)cc(Cl)c2)cc1Cl)c1cc(Cl)ccc1O` , please.
Response given: 100
